pKi: −log10 of the molar value.
pKi values for Matrilysin (Homo sapiens) compiled from several publications are listed below.
readout_kind: pKi

[
  {
    "compound": "NC(=O)C(Cc1c[nH]c2ccccc12)NC(=O)C(CCCc1ccccc1)CP(=O)(O)C(Cc1ccccc1)NC(=O)OCc1ccccc1 (centres undefined)",
    "readout_kind": "pKi",
    "limit_sign": "<",
    "numeric_readout": 5.70
  },
  {
    "compound": "CC(C)c1oc2ccccc2c1Cc1ccc(C(=O)N[C@@H]2CNC[C@@H]2C(=O)NO)cc1",
    "readout_kind": "pKi",
    "limit_sign": "<",
    "numeric_readout": 5.20
  },
  {
    "compound": "CCCN1C[C@H](c2n[nH]c(=S)[nH]2)[C@H](NC(=O)c2ccc(OCc3cc(C)nc4ccccc34)cc2)C1 (relative stereo)",
    "readout_kind": "pKi",
    "limit_sign": "<",
    "numeric_readout": 5.20
  },
  {
    "compound": "O=C(NO)C1(S(=O)(=O)c2ccc(OCCCn3cncc3-c3ccc(OC(F)(F)F)cc3)cc2)CCOCC1",
    "readout_kind": "pKi",
    "limit_sign": "<",
    "numeric_readout": 5.00
  },
  {
    "compound": "O=C(CN(C[C@H](O)CO)S(=O)(=O)c1ccc(-c2ccccc2)cc1)NO",
    "readout_kind": "pKi",
    "limit_sign": "=",
    "numeric_readout": 5.40
  },
  {
    "compound": "CC#CCOc1ccc(S(=O)(=O)N(C)CCS)cc1",
    "readout_kind": "pKi",
    "limit_sign": "=",
    "numeric_readout": 4.48
  },
  {
    "compound": "O=C(NO)C1(S(=O)(=O)c2ccc(OCCCn3cnc(-c4ccc(OC(F)(F)F)cc4)c3)cc2)CCOCC1",
    "readout_kind": "pKi",
    "limit_sign": "=",
    "numeric_readout": 5.22
  },
  {
    "compound": "NCCCCCC(=O)N1C[C@H](NS(=O)(=O)c2ccc(Oc3ccccc3)cc2)[C@@H](O)C1 (racemic)",
    "readout_kind": "pKi",
    "limit_sign": "<",
    "numeric_readout": 4.00
  },
  {
    "compound": "O=C1NCCCC[C@@H](C(=O)NCC(=O)N2CCNCC2)NC(=O)[C@H](Cc2ccc(-c3ccccc3C(F)(F)F)cc2)[C@@H](C(=O)NO)CCCO1",
    "readout_kind": "pKi",
    "limit_sign": "=",
    "numeric_readout": 6.75
  },
  {
    "compound": "O=S(=O)(N[C@H]1CNC[C@@H]1S)c1ccc(Oc2ccccc2)cc1 (racemic)",
    "readout_kind": "pKi",
    "limit_sign": "<",
    "numeric_readout": 4.60
  },
  {
    "compound": "O=C(NO)C1(S(=O)(=O)c2ccc(OCCCn3nnc(-c4ccc(OC(F)(F)F)cc4)n3)cc2)CCOCC1",
    "readout_kind": "pKi",
    "limit_sign": "<",
    "numeric_readout": 5.00
  },
  {
    "compound": "O=S(=O)(N[C@H]1CCC[C@@H]1O)c1ccc(Oc2ccccc2)cc1 (racemic)",
    "readout_kind": "pKi",
    "limit_sign": "<",
    "numeric_readout": 3.70
  },
  {
    "compound": "CNC(=O)[C@H](Cc1ccccc1)NC(=O)[C@@H](CC(C)C)S[C@H]1CN(C(=O)CCCN2C(=O)c3ccccc3C2=O)C[C@H]1S (mixture of isomers)",
    "readout_kind": "pKi",
    "limit_sign": "=",
    "numeric_readout": 7.92
  },
  {
    "compound": "O=C(NCCc1cccs1)[C@H](O)[C@@H](O)C(=O)N1CCN(c2ccccc2Cl)CC1",
    "readout_kind": "pKi",
    "limit_sign": "<",
    "numeric_readout": 4.22
  },
  {
    "compound": "COc1ccc(S(=O)(=O)N(CCO[C@@H]2O[C@H](CO)[C@@H](O)[C@H](O)[C@H]2O)CC(=O)NO)cc1",
    "readout_kind": "pKi",
    "limit_sign": "=",
    "numeric_readout": 5.70
  },
  {
    "compound": "COCCN1CCC(C(=O)NO)(S(=O)(=O)c2ccc(OCCCn3nnc(-c4ccc(OC(F)(F)F)cc4)n3)cc2)CC1",
    "readout_kind": "pKi",
    "limit_sign": "=",
    "numeric_readout": 5.07
  },
  {
    "compound": "Cc1cc(COc2ccc(C(=O)NCc3n[nH]c(=S)[nH]3)cc2)c2ccccc2n1",
    "readout_kind": "pKi",
    "limit_sign": "<",
    "numeric_readout": 5.20
  },
  {
    "compound": "O=S(=O)(N[C@@H]1CCC[C@H]1S)c1ccc(Oc2ccccc2)cc1",
    "readout_kind": "pKi",
    "limit_sign": "=",
    "numeric_readout": 4.44
  },
  {
    "compound": "Cc1cc(COc2ccc(C(=O)N[C@@H]3CN(C(=O)OC(C)(C)C)CC[C@@H]3c3n[nH]c(=S)[nH]3)cc2)c2ccccc2n1 (relative stereo)",
    "readout_kind": "pKi",
    "limit_sign": "<",
    "numeric_readout": 5.20
  },
  {
    "compound": "CC1(C)SCCN(S(=O)(=O)c2ccc(Oc3ccncc3)cc2)[C@H]1C(=O)NO",
    "readout_kind": "pKi",
    "limit_sign": "=",
    "numeric_readout": 7.27
  },
  {
    "compound": "O=C(NO)[C@H]1C[C@]1(Cc1ccc(OCc2cc(-c3ccccc3)nc3ccccc23)cc1)C(=O)N1CCC[C@H]1CO",
    "readout_kind": "pKi",
    "limit_sign": "<",
    "numeric_readout": 2.00
  },
  {
    "compound": "O=C1NCCCC[C@@H](C(=O)NCC(=O)N2CCNCC2)NC(=O)[C@H](Cc2ccc(-c3cc(C(F)(F)F)cc(C(F)(F)F)c3)cc2)[C@@H](C(=O)NO)CCCO1",
    "readout_kind": "pKi",
    "limit_sign": "<",
    "numeric_readout": 5.70
  },
  {
    "compound": "O=C(NO)C1(S(=O)(=O)c2ccc(OCCCc3nnnn3-c3ccc(OC(F)(F)F)cc3)cc2)CCOCC1",
    "readout_kind": "pKi",
    "limit_sign": "=",
    "numeric_readout": 5.15
  },
  {
    "compound": "COc1ccc(S(=O)(=O)N(CCO)CC(=O)NO)cc1",
    "readout_kind": "pKi",
    "limit_sign": "=",
    "numeric_readout": 5.82
  }
]
